method description: Thermodynamic solubility of the compound
Type: physicochemical
measurement parameters: read-out: Therm_solubility
measured endpoint: solubility thermodynamic (µM)

1) O=C(O)CCSc1nnc(-c2ccc(Cl)cc2Cl)o1
682
2) O=C(O)CCCSc1nnc(-c2ccc(Cl)cc2Cl)o1
841

====

method description: Oral bioavailability in CD-1 mouse at 10 mg/kg by LC-MS/MS analysis
Assay type: ADME, organism-based
measurement parameters: in vivo
measured endpoint: bioavailability (%)

1. O=C(O)CCCSc1nnc(-c2ccc(C3CC3)cc2Cl)o1
17

====

method description: Clearance in CD-1 mouse at 15 mg/kg, iv by LC-MS/MS analysis
Assay type: ADME, organism-based
measurement parameters: in vivo
measured endpoint: clearance (mL/min/kg)

1) O=C(O)CCSc1nnc(-c2ccc(Cl)cc2Cl)o1
5.3

====

method description: Inhibition of Rho/MRTF/SRF pathway (unknown origin) expressed in human PC3 cells assessed as reduction in Galpha12 Q231L-stimulated MRTF-selective SRE.L promoter-driven luciferase activity after overnight incubation by luminescence assay
Assay type: cell-based
Quick reference for IC50 among some compounds
measured endpoint: IC50 (nM)

1) O=C(O)CCSc1nnc(-c2cccc(Cl)c2)o1
1500
2) O=C(O)CCSc1nnc(-c2ccc(Cl)cc2Cl)o1
4
3) O=C(O)CCSc1nnc(-c2ccccc2)o1
3500
4) Cc1ccc(-c2nnc(SCCC(=O)O)o2)cc1
34
5) O=C(O)CCSc1nnc(-c2ccccc2Cl)o1
25
6) O=C(O)CCSc1nnc(-c2cccnc2)o1
87000
7) O=C(O)CCSc1nnc(-c2ccc(Cl)cc2)o1
340
8) Cc1cccc(-c2nnc(SCCC(=O)O)o2)c1
180
9) Cc1ccc(-c2nnc(SCCCC(=O)O)o2)c(Cl)c1
0.1
10) COc1cccc(-c2nnc(SCCC(=O)O)o2)c1
3600
11) COc1ccc(-c2nnc(SCCC(=O)O)o2)cc1
160
12) Cc1ccc(-c2nnc(SCCC(=O)O)o2)c(Cl)c1
1.5
13) COC(=O)c1ccc2c(c1)NC(=O)/C2=C(\Nc1ccc(N(C)C(=O)CN2CCN(C)CC2)cc1)c1ccccc1 [NINTEDANIB]
1300
14) O=C(O)CCCSc1nnc(-c2ccc(C3CC3)cc2Cl)o1
0.001
15) O=C(O)CCCSc1nnc(-c2ccc(Cl)cc2Cl)o1
1.8
16) COc1ccccc1-c1nnc(SCCC(=O)O)o1
3100
17) CCOC(=O)CCSc1nnc(-c2ccc(Cl)cc2Cl)o1
2.6
18) COc1ccc(-c2nnc(SCCC(=O)O)o2)c(Cl)c1
2.6
19) Cc1ccccc1-c1nnc(SCCC(=O)O)o1
6300

====

method description: Half-life in CD-1 mouse at 20 mg/kg, po by LC-MS/MS analysis
Format: ADME, organism-based
measurement parameters: in vivo
measured endpoint: half-life (h)

1. O=C(O)CCCSc1nnc(-c2ccc(Cl)cc2Cl)o1
1.2

====

method description: AUC in CD-1 mouse at 3 mg/kg, iv by LC-MS/MS analysis
Assay type: ADME, organism-based
measurement parameters: in vivo
measured endpoint: AUC (ng·h/mL)

1) O=C(O)CCCSc1nnc(-c2ccc(C3CC3)cc2Cl)o1
3260

====

Quick reference for Cmax among some compounds
method description: Cmax in CD-1 mouse at 30 mg/kg, po by LC-MS/MS analysis
Assay type: ADME, organism-based
Set-up: dose 30 mg/kg, route oral
measurement parameters: in vivo
measured endpoint: Cmax (ng/mL)

1. O=C(O)CCCSc1nnc(-c2ccc(C3CC3)cc2Cl)o1
10100
2. O=C(O)CCSc1nnc(-c2ccc(Cl)cc2Cl)o1
34000
